system: T-47D breast; test: NCI-60 one-dose screen, 48 h (100 = growth as untreated, 0 = no growth, -100 = all killed); settings: 10 µM unless noted
Compounds without any hit were thinned out: in the full panel of roughly 83,000, 20% have a hit. Calls of active or inactive are those of the source. Rule for the calls: active = growth percent below 10; inactive = the rest.
quantity kind: growth

Below: 2 compounds and their reported growth.
{"compound": "CCn1c(SCC(=O)Nc2cccc(C(=O)/C=C/c3ccc(Br)cc3)c2)nc2ccccc2c1=O", "growth": "90.7% (inactive)"}
{"compound": "COc1ccc(NC(=O)Nc2ccc3c(ccn3C(=O)c3cccc(F)c3)c2)cc1", "growth": "75.9% (inactive)"}

Turning to the following compound.
Lab entry: T-47D breast assay, compound `O=C1C(c2ccccc2)=C(N2CCc3ccccc32)OC1(Cl)Cl` , growth = 10.1% (inactive)

---

Test system: CCRF-CEM leukemia
Experiment: NCI-60 one-dose screen, 48 h
Conditions: 10 µM unless noted
Protocol: Growth inhibition of the CCRF-CEM human tumor cell line is measured as a screen for anti-cancer activity. Cells are grown in 96 well plates and exposed to the test compound for 48 hours. Compounds are tested at a single concentration, which is 10^-5 M for most compounds. The reported endpoint is percent growth (GI% or GIPRCNT), where numbers from 0 - 100% represent growth inhibition, and numbers from -100% - 0 represent cell death. For example, a value of 40 represents 60% growth inhibition. […]
This is part of a sample that, as a whole, favours compounds with a hit. Of some 83,000 tested, about 20% had one in any assay. The source made the active and inactive calls. Rule for the calls: active = growth percent below 10; inactive = the rest.
Outcome (select one): yes (1) (active), no (0) (inactive)

{"molecule": "COc1cccc(N2CCN(c3ncnc4c3[nH]c3ccc(F)cc34)C[C@H]2C)c1", "class assignment": "no (0)"}
{"molecule": "COc1ccc(Cn2cc3c(c2-c2cc(OC)c(OC)c(OC)c2)CCc2c(CN4CCOCC4)noc2-3)cc1", "class assignment": "no (0)"}
{"molecule": "Cc1[nH]c(C(=O)Nc2ccccc2OCc2cccc(C(=O)N3CCC[C@@H](N)C3)c2)c(Cl)c1Cl", "class assignment": "yes (1)"}
{"molecule": "CNC(=O)c1cc(N2CCc3cc(NC(=O)Nc4ccc(Cl)c(C(F)(F)F)c4)ccc32)ccn1", "class assignment": "no (0)"}
{"molecule": "COc1cc(OC)c(/C=C/S(=O)(=O)Cc2ccc(OC)c(NCC(=O)NO)c2)c(OC)c1", "class assignment": "no (0)"}
{"molecule": "O=S(=O)(NCCNc1nccc(-n2cnc3ccccc32)n1)c1ccc(Br)cc1", "class assignment": "no (0)"}

Q: What did this assay record as the result for `Nc1ncc(-c2ccc3ncnc(N4CCc5cc(F)c(F)cc54)c3c2)cn1` ?
Result: no (0)

Q: What did this assay record as the result for `CN(C)C(=O)c1cc(-c2ccc3ncnc(NCc4ccccc4)c3c2)cnc1N` ?
Result: no (0)

Q: What did this assay record as the result for Cc1ccc2sc3c(c2c1)OC(N)=C(C#N)C3c1cccc(F)c1 (stereo unspecified) ?
Result: no (0)

Q: What did this assay record as the result for C[C@@H]1C[C@H]2C(=O)O[C@@H](C)C(NC(=O)[C@H](Cc3cc(F)cc(F)c3)NC(=O)Nc3ccc(Cl)cc3F)C(=O)N3CCC[C@H]3C(=O)N3CCCC[C@H]3C(=O)N[C@@H](CO)C(=O)N2C1 (stereo partly specified) ?
Result: no (0)

Q: What did this assay record as the result for `Cn1cc(CNc2nc3ccc(OC/C(=C/F)CN)cc3o2)ccc1=O` ?
Result: no (0)

Q: What did this assay record as the result for COc1cc2c(cc1OC)C(Sc1ccc(C)cc1)c1c(nc(N)c(C#N)c1N)O2 (stereo unspecified) ?
Result: yes (1)

Q: What did this assay record as the result for `CCN(CC)CCn1c2ccc(O)cc2c2sc3cc(OC)ccc3c(=O)c21` ?
Result: no (0)

Q: What did this assay record as the result for `Cc1ccc2c(c1)C(=O)/C(=C/c1cccc(F)c1)S2` ?
Result: no (0)

Q: What did this assay record as the result for `O=c1[nH]c(Sc2sc3ccc(Cl)cc3c2CBr)nc(=S)[nH]1` ?
Result: no (0)

Q: What did this assay record as the result for `C=CCN(C)S(=O)(=O)/N=C1\NC(=O)NC1=C(Cl)Cl` ?
Result: yes (1)

---

As shown below, each of these molecules has a reported growth value.
system: ACHN renal; assay: NCI-60 one-dose screen, 48 h (100 = growth as untreated, 0 = no growth, -100 = all killed); conditions: 10 µM unless noted
The panel holds about 83,000 compounds, 20% with a hit somewhere; the sample as a whole holds those more often.
Form entry: value (%) — number only.

Below: 5 molecules and their reported growth.
{"compound": "COc1ccc(-c2nc3ccc(-c4nnc(SCC(=O)Nc5ccc(C(=O)/C=C/c6ccc(Cl)cc6)cc5)o4)cc3[nH]2)cc1", "target or system": "ACHN renal", "quantity kind": "growth", "unit of measure": "%", "val": 97.7}
{"compound": "COc1ccc(/C=C/C(=O)c2cccc(NC(=O)CSc3nc4ccccc4c(=O)n3-c3ccccc3)c2)cc1OC", "target or system": "ACHN renal", "quantity kind": "growth", "unit of measure": "%", "val": 100}
{"compound": "Cc1ccc(-n2cc(/C=N/NC(=O)c3ccncc3)c(-c3ccc(S(C)(=O)=O)cc3)n2)cc1", "target or system": "ACHN renal", "quantity kind": "growth", "unit of measure": "%", "val": 98}
{"compound": "CCOC(=O)c1c(NC(=O)c2ccccc2C(F)(F)F)sc2c1CCC(=O)C2", "target or system": "ACHN renal", "quantity kind": "growth", "unit of measure": "%", "val": 6.88}
{"compound": "COc1ccc2c(c1)c(-c1cc(N)n3nc(-c4cn(C)c5ccc(OC)cc45)cc3n1)cn2C", "target or system": "ACHN renal", "quantity kind": "growth", "unit of measure": "%", "val": 103}

Lab entry: ACHN renal assay, molecule `CN1CCC(n2cc(Nc3ncc4c(=O)n(-c5c(Cl)cccc5Cl)cc(Br)c4n3)cn2)CC1` , growth = 24

---

tested on: U251 CNS; test: NCI-60 one-dose screen, 48 h (100 = growth as untreated, 0 = no growth, -100 = all killed); conditions: 10 µM unless noted
The panel holds about 83,000 compounds, 20% with a hit somewhere; the sample as a whole holds those more often.
quantity kind: growth (%)
Form entry: value (%) — number only.

{"compound": "CC(=O)C1=C(C)NC(NNC(N)=S)=NC1c1ccccc1 (stereo not drawn)", "target or system": "U251 CNS", "unit of measure": "%", "growth": 106}

Lab entry: U251 CNS assay, compound `N#Cc1cn(Cc2ccc(Cl)cc2Cl)c(C(=O)c2ccc(Br)cc2)c1N` , growth = 86.1

Lab entry: U251 CNS assay, compound COc1cc2nc(Cl)nc(Nc3cccc(C4=Nc5c(N)nc(N)nc5NC(c5ccc(Br)cc5)C4)c3)c2cc1OC (stereo not drawn) , growth = -46.5

Lab entry: U251 CNS assay, compound `CCN1CCN(Cc2cn(-c3ccc(S(N)(=O)=O)cc3)nn2)CC1` , growth = 109

Lab entry: U251 CNS assay, compound `NC(N)=Nc1ccc(Oc2cccc(NC(N)=Nc3ccc(Br)cc3)c2)cn1` , growth = 43.1

Lab entry: U251 CNS assay, compound `CCCCCc1ccc(S(=O)(=O)Nc2cccc(-c3csc(NCCN4CCN(C)CC4)n3)c2)cc1` , growth = 45.7

Lab entry: U251 CNS assay, compound `CN(C)CCNC(=O)c1ccc(-c2nc3ccc4[nH]ncc4c3c3c2CCC3)cc1` , growth = 25.3

Lab entry: U251 CNS assay, compound `O=S(=O)(NCCNc1nccc(-n2cnc3ccccc32)n1)c1ccc(Cl)cc1` , growth = 102

---

Test system: K-562 leukemia
Test: NCI-60 one-dose screen, 48 h (100 = growth as untreated, 0 = no growth, -100 = all killed)
Settings: 10 µM unless noted
Protocol: Cells are grown in 96 well plates and exposed to the test compound for 48 hours. Compounds are tested at a single concentration, which is 10^-5 M for most compounds. The reported endpoint is percent growth (GI% or GIPRCNT), where numbers from 0 - 100% represent growth inhibition, and numbers from -100% - 0 represent cell death. For example, a value of 40 represents 60% growth inhibition. A value of 0 means no net growth occurred over the course of the experiment. […]
About 83,000 compounds went through this panel and 20% of them were active in at least one assay; those are over-represented in the sample as a whole.
As shown below, each of these compounds has a reported growth value.
Form entry: value (%) — number only.

Below: 5 compounds and their reported growth.
{"compound": "CCNC(=O)N1CCc2cc(OC)c(OCCc3ccc(OC)c(N)c3)cc2C1c1cc(C)c(C)cc1C (configuration not stated)", "growth, %": 20.5}
{"compound": "N#Cc1c(-c2cccs2)cc(-c2cnccn2)nc1SCC(=O)Nc1ccc(Br)cc1", "growth, %": 67.4}
{"compound": "C=C(C)[C@@H]1CC[C@]2(COCCCNCCC#N)CC[C@]3(C)[C@H](CC[C@@H]4[C@@]5(C)CC[C@H](OCCCNCCC#N)C(C)(C)[C@@H]5CC[C@]43C)[C@@H]12", "growth, %": 3.78}
{"compound": "C=CC(=O)N1CCC=C(c2cc3c(N[C@H](C)c4ccccc4)ncnc3[nH]2)C1", "growth, %": 37}
{"compound": "COc1ccc(-c2cc(-c3ccc(Cl)cc3)c(C#N)c(=O)n2Cc2ccc(C(=O)O)cc2)cc1", "growth, %": 54.3}

Lab entry: K-562 leukemia assay, compound `Brc1ccccc1/C=N/Nc1nc(N/N=C/c2ccccc2Br)nc(N2CCOCC2)n1` , growth = 94.1

Lab entry: K-562 leukemia assay, compound `c1n[nH]cc1-c1nc2ccc3[nH]ncc3c2c2c1CCCC2` , growth = 33.9
